Quick record of Ki values for human σ1 receptor (Homo sapiens (Human), UniProt Q99720).
MEASURED ENDPOINT: Ki

>>> test_value("COc1ccc(CN2CC(C3CCN(Cc4ccccc4)CC3)OC3(CC3)C2=O)cc1 (centres unmarked) [Example 3]")
"< 500 nM"
>>> test_value("CCN1C[C@H](C2CCN(Cc3ccc(C#N)cc3)CC2)O[C@H](C)C1=O [Example 34]")
"≥ 500 nM"
>>> test_value("CCN1C[C@@H](C2CCN(Cc3ccc(C#N)cc3)CC2)O[C@@H](C)C1=O [Example 31]")
"≥ 500 nM"
>>> test_value("CCN1C[C@H](C2CCN(Cc3ccccc3)CC2)O[C@@H](C)C1=O [Example 24]")
"≥ 500 nM"
>>> test_value("CCN1C[C@@H](C2CCN(Cc3ccc(C#N)cc3)CC2)O[C@H](C)C1=O [Example 33]")
"≥ 500 nM"

* * *

Quick record of Ki values for human σ1 receptor (Homo sapiens (Human)).
MEASURED ENDPOINT: Ki

>>> test_value("CCN1CC(C2CCN(Cc3ccc(C#N)cc3)CC2)OC2(CC2)C1=O (stereo not shown)")
"≥ 500 nM"
>>> test_value("COc1ccc(CN2CC(C3CCN(CCC(C)C)CC3)OC3(CC3)C2=O)cc1 (stereo not shown)")
"< 500 nM"
>>> test_value("COc1ccc(CN2CCOC(C3CCN(Cc4ccccc4)CC3)C2)cc1 (stereo not shown)")
"< 100 nM"
>>> test_value("CCN1C[C@@H](C2CCN(Cc3ccccc3)CC2)O[C@@H](C)C1=O")
"≥ 500 nM"
>>> test_value("CCN1CCOC(C2CCN(Cc3ccccc3)CC2)C1 (stereo not shown)")
"< 100 nM"
>>> test_value("O=C1N(c2ccccc2)CC(C2CCN(CCc3ccccc3)CC2)OC12CC2 (stereo not shown)")
"≥ 500 nM"
>>> test_value("CCN1CC(C2CCN(CCc3ccccc3)CC2)OC2(CC2)C1=O (stereo not shown)")
"< 500 nM"
